Test system: LoVo
Test: Induction of apoptosis in human drug-sensitive LoVo cells assessed as necrotic cells at 100 uM after 48 hrs by annexin-V and propidium iodide staining based flow cytometry (reference value: 10.44 +/- 3.23%)
Type: functional
Mark each entry true (1) if its Activity sits below 20%, and false (0) for all others.

{"Compound": "COc1cc(O)c2c(c1)O[C@H](c1ccc(O)cc1)CC2=O", "Group": "false (0)"}
{"Compound": "O=C1C[C@@H](c2ccc(O)cc2)Oc2cc(O)cc(O)c21", "Group": "true (1)"}
{"Compound": "O=C1c2c(O)cc(O)cc2O[C@H](c2ccc(O)cc2)[C@H]1O [DIHYDROKAEMPFEROL]", "Group": "true (1)"}
{"Compound": "COc1ccc(-c2cc(=O)c3c(OC)c(OC)c(OC)c(OC)c3o2)cc1", "Group": "false (0)"}
{"Compound": "COc1ccc([C@@H]2CC(=O)c3c(O)cc(OC)cc3O2)cc1", "Group": "true (1)"}
